What koff was measured for each of the following?
# Measured target: T1, human VEGF (hVEGF) (human, UniProt P15692 181-395)
# T1 construct: also called VEGF-A
# T1 sequence: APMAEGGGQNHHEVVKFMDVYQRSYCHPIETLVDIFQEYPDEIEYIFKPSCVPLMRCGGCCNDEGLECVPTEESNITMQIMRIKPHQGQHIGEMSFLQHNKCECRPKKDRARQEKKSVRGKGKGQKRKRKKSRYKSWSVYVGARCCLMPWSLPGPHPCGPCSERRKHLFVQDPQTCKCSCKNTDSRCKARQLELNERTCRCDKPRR
# Method: SPR single-cycle
Output spec: scalar in s⁻¹, unitless text.

Task: Requested field: koff. Item: G6.31 HC-Q81W (Fab, name in Kabat numbering, V domains shown, Fab) VH: EVQLVESGGGLVQPGGSLRLSCAASGFTISDYWIHWVRQAPGKGLEWVAGITPAGGYTYYADSVKGRFTISADTSKNTAYLWMNSLRAEDTAVYYCARFVFFLPYAMDYWGQGTLVTVSS VL: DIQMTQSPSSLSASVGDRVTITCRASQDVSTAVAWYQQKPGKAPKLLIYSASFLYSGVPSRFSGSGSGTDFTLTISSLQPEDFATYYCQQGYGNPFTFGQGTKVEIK
Output: 0.000542

Task: Next up: G6.31 HC-T57E (Fab, name in Kabat numbering, V domains shown, Fab) VH: EVQLVESGGGLVQPGGSLRLSCAASGFTISDYWIHWVRQAPGKGLEWVAGITPAGGYEYYADSVKGRFTISADTSKNTAYLQMNSLRAEDTAVYYCARFVFFLPYAMDYWGQGTLVTVSS VL: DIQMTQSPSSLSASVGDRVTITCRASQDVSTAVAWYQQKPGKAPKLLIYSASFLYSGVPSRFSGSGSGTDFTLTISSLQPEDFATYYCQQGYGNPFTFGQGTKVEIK
Output: 0.000402

Task: Next up: G6.31 HC-A60M (Fab, name in Kabat numbering, V domains shown, Fab) VH: EVQLVESGGGLVQPGGSLRLSCAASGFTISDYWIHWVRQAPGKGLEWVAGITPAGGYTYYMDSVKGRFTISADTSKNTAYLQMNSLRAEDTAVYYCARFVFFLPYAMDYWGQGTLVTVSS VL: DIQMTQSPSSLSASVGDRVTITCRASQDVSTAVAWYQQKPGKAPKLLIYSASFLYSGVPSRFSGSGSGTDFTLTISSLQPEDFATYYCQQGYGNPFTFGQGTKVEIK
Output: 0.000729

Task: Next up: G6.31 HC-Q81S (Fab, name in Kabat numbering, V domains shown, Fab) VH: EVQLVESGGGLVQPGGSLRLSCAASGFTISDYWIHWVRQAPGKGLEWVAGITPAGGYTYYADSVKGRFTISADTSKNTAYLSMNSLRAEDTAVYYCARFVFFLPYAMDYWGQGTLVTVSS VL: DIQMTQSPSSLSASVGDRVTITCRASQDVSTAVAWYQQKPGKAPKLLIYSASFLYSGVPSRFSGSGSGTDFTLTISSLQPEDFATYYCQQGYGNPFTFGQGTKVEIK
Output: 0.000487

Task: Next up: G6.31 LC-L73G (Fab, V domains shown, Fab) VH: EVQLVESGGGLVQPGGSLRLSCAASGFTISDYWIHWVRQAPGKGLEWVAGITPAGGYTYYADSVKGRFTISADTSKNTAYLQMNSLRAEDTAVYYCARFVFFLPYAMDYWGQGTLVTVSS VL: DIQMTQSPSSLSASVGDRVTITCRASQDVSTAVAWYQQKPGKAPKLLIYSASFLYSGVPSRFSGSGSGTDFTGTISSLQPEDFATYYCQQGYGNPFTFGQGTKVEIK
Output: 0.000644

Task: Next up: G6.31 HC-A53R (Fab, name in Kabat numbering, V domains shown, Fab) VH: EVQLVESGGGLVQPGGSLRLSCAASGFTISDYWIHWVRQAPGKGLEWVAGITPRGGYTYYADSVKGRFTISADTSKNTAYLQMNSLRAEDTAVYYCARFVFFLPYAMDYWGQGTLVTVSS VL: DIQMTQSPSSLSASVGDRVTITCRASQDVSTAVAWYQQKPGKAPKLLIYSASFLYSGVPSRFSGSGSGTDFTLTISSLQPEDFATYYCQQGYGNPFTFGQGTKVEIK
Output: 0.00035

Task: Next up: G6.31 HC-Y59T (Fab, name in Kabat numbering, V domains shown, Fab) VH: EVQLVESGGGLVQPGGSLRLSCAASGFTISDYWIHWVRQAPGKGLEWVAGITPAGGYTYTADSVKGRFTISADTSKNTAYLQMNSLRAEDTAVYYCARFVFFLPYAMDYWGQGTLVTVSS VL: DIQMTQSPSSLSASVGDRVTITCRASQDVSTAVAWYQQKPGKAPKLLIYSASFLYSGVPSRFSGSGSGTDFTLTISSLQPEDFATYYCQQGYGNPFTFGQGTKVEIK
Output: 0.000974
